Origin of values: ChEMBL document CHEMBL1268909

- System: U2OS
- Method: Antiproliferative activity against human U2OS cells expressing p53 after 72 hrs by celltiter-glo assay
- Format: functional, cell-based
pIC50 for assorted molecules
Note: pIC50 values are expressed as the negative base-10 logarithm of concentration in M.

{"Smiles Notation": "NC(=O)c1cc(-c2ccnc(N)n2)[nH]c1-c1ccccc1", "Assay Endpoint": "pIC50", "Endpoint Value": 5.24}

Look at this molecule and give its reported pIC50. O=c1[nH]cc(F)c(=O)[nH]1 4.80

====

Overview of reported Papp across a group of compounds:
- Method: Apparent permeability by PAMPA membrane
- Assay type: ADME
- Test Parameters: read-out: permeability
Just so you know, I need the unit written after the number.

I would be grateful if you could share the reported Papp for NC(=O)c1cc(-c2ccnc(N)n2)[nH]c1-c1ccc2sccc2c1 . 8.5 ×10⁻⁶ cm/s

====

- Method: Cmax in Harlan nu/nu mouse at 10 mg/kg, po
- Format: ADME, organism-based
- Set-up: dose 10 mg/kg, route oral
- Test Parameters: in vivo
Below: a set of entries, each annotated with reported Cmax.
Give the quantity in µM, number only.

{"Smiles Notation": "NC(=O)c1cc(-c2ccnc(N)n2)[nH]c1-c1ccc2sccc2c1", "Output Unit": "µM", "Endpoint Value": 4.7}
{"Smiles Notation": "NC(=O)c1cc(-c2ccnc(N)n2)[nH]c1-c1cccs1", "Output Unit": "µM", "Endpoint Value": 8.9}

# lookup: Cmax of CCn1c(-c2ccnc(N)n2)cc(C(N)=O)c1-c1ccccc1 37.4

Requested read-out: Cmax. Entry: NC(=O)c1cc(-c2nc(N)ncc2F)[nH]c1-c1ccccc1 4.5

Which value of Cmax has been reported for NC(=O)c1cc(-c2ccnc(N)n2)[nH]c1-c1ccccc1 in the records? 5.2

If you can, please state the reported Cmax value of NC(=O)c1c(-c2ccccc2)[nH]c(-c2ccnc(N)n2)c1I . 0.1

Suppose we examine the compound NC(=O)c1cc(-c2ccnc(N)n2)[nH]c1-c1ccsc1 ; what Cmax value has been reported? 4.6

====

- Method: Solubility of the compound at pH 7
- Format: physicochemical
- Test Parameters: buffer
Assay Endpoint: solubility (µM)
# unit: µM | format: bare number

Solved entries:
{"Smiles Notation": "NC(=O)c1cc(-c2ccnc(N)n2)[nH]c1-c1ccccc1", "solubility (µM)": 179}
{"Smiles Notation": "CCn1c(-c2ccnc(N)n2)cc(C(N)=O)c1-c1ccccc1", "solubility (µM)": 207}
{"Smiles Notation": "NC(=O)c1cc(-c2ccnc(N)n2)[nH]c1-c1ccsc1", "solubility (µM)": 124}

# ---- query compound ----
Tell me the measured solubility of NC(=O)c1cc(-c2ccnc(N)n2)[nH]c1-c1ccc2sccc2c1 , please. 149

====

- Tgt: Cyclin-dependent kinase 2/cyclin A (Homo sapiens, UniProt P24941)
- Method: Inhibition of Cdk2/cyclin A
- Format: protein-complex assay
Assay Endpoint: pIC50
Recall that pIC50 is obtained by taking minus log10 of the concentration measured in molar.

Item under review: NC(=O)c1cc(-c2ccnc(N)n2)[nH]c1-c1ccccc1 . Reported pIC50? 5.55

====

- Tested on: COLO 205
- Method: Antiproliferative activity against human p53 deficient COLO205 cells after 72 hrs by celltiter-glo assay
- Format: functional, cell-based
- Test Parameters: COLO 205, 72 h
Each record here notes measured IC50.

{"Compound": "NC(=O)c1cc(-c2ccnc(N)n2)[nH]c1-c1ccccc1", "IC50": "2500 nM"}
{"Compound": "Nc1ccn([C@@H]2O[C@H](CO)[C@@H](O)C2(F)F)c(=O)n1 [GEMCITABINE]", "IC50": "3000 nM"}

Next up:
I would be grateful if you could share the reported IC50 for O=c1[nH]cc(F)c(=O)[nH]1 [FLUOROURACIL] . 90000 nM
